Below, each of the molecules is paired with its reported logP value.

molecule	logP
CCOC(=O)C(C)n1nnc2ccccc21 (stereo unspecified)	1.87
CCOC(=O)C(CC)n1nc2ccccc2n1 (stereo unspecified)	2.88
CCOC(=O)CC(C)n1nnc2ccccc21 (stereo unspecified)	2.27
CCCC(C(=O)OCC)n1nnc2ccccc21 (stereo unspecified)	2.82
CCOC(=O)CC(C)n1nc2ccccc2n1 (stereo unspecified)	2.7
c1ccc2c(c1)nnn2C1CCCC1	2.61

The values you see were collected from the OPERA property sets (Mansouri et al. 2018).
